- Assayed System: T1, human LgR5 ECD (amino acids 22-557 fused to His-Fc expressed in a baculovirus system, or amino acids 22-558 … (human, UniProt O75473 22-557))
- T1 construct: not shown: C-terminal His-tagged Fc
- T1 sequence: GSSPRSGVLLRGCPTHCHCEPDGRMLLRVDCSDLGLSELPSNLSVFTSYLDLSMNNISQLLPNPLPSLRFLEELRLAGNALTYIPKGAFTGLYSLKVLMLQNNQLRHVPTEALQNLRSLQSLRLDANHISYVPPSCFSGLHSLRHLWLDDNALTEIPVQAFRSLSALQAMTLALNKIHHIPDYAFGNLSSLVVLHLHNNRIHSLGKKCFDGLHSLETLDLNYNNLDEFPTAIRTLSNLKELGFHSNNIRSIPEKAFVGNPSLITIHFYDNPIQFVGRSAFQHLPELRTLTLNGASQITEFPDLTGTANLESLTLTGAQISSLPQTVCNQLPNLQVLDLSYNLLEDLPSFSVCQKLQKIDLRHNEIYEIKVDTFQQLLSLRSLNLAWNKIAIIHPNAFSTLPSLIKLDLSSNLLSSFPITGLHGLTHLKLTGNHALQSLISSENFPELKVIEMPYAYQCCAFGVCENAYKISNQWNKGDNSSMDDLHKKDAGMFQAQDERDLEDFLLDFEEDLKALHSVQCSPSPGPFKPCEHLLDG
- Assay Comment: BIAcore-3000 SPR, IgG captured on goat anti-human Fc, human LgR5 ECD-Fc injected, 25 C, 1:1 Langmuir model
- Method: The affinity of each 8E11 IgG variant for human LgR5 was determined by surface plasmon resonance using a BIAcore™-3000. […] Association rates (kₒₙ) and dissociation rates (koff) were calculated using a 1:1 Langmuir binding model (BIAcore™ Evaluation Software version 3.2). The equilibrium dissociation constant (Kd) was calculated as the ratio koff/kₒₙ.
Please go through the items and note down their Kd.
Answer with the figure and its unit, nothing else.

# Kd of humanized monoclonal antibody 8E11.v2 (antibody, human IgG1, kappa, V domains shown, It was assessed as an IgG; also called hu8E11.v2; hu8E11v2) VH: EVQLVQSGAEVKKPGASVKVSCKASGYTFSAYWIEWVRQAPGQGLEWIGEILPGSDSTDYNEKFKVRATFTSDTSTSTVYLELSSLRSEDTAVYYCARGGHYGSLDYWGQGTLVTVSS VL: DIVMTQSPDSLAVSLGERATINCRASESVDNYGNSFMHWYQQKPGQPPKLLIYLASNLESGVPDRFSGSGSGTDFTLTISSLQAEDVAVYYCQQNYEDPFTFGQGTKVEIKR = 3.1 nM

Query h8E11.v8 (antibody, V domains shown, VH CDR graft + 71A/78A; also called hu8E11.v8) VH: EVQLVQSGAEVKKPGASVKVSCKASGYTFSAYWIEWVRQAPGQGLEWIGEILPGSDSTDYNEKFKVRVTITADTSTSTAYLELSSLRSEDTAVYYCARGGHYGSLDYWGQGTLVTVSS VL: DIVMTQSPDSLAVSLGERATINCRASESVDNYGNSFMHWYQQKPGQPPKLLIYLASNLESGVPDRFSGSGSRTDFTLTISSLQAEDVAVYYCQQNYEDPFTFGQGTKVEIKR yields Kd of 8.97 nM
